- Test system: IgE antibodies from patients
- testProtocol: Wheat epitope mapping (2): overlapping 10-amino-acid peptide fragments shifted by one amino acid;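 note: key = sequence deemed particularly important within the common 15-residue sequence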
- Format: binding, human
- conditions: serum of patient P35 (WDEIA); sequence without X
measure: Rank of partial sequence as epitope binding to IgE antibody

1) 1556 (LVQQQ; REGION 1..5: note = epitope) [compound 1556]; Key
2) 1488 (YLQPQQPIS; REGION 1..9: note = epitope) [compound 1488]; Key
3) 1643 (PDKVPFVPIS; REGION 1..10: note = epitope) [compound 1643]; Key
4) 1642 (YNPD; REGION 1..4: note = epitope) [compound 1642]; Key
5) 1489 (QQPISQQQAQ; REGION 1..10: note = epitope) [compound 1489]; Preferably
6) 1555 (QVPLVQQQ; REGION 1..8: note = epitope) [compound 1555]; Preferably
7) 1487 (YLQPQQPISQ; REGION 1..10: note = epitope) [compound 1487]; Preferably
8) 1641 (YNPDKVP; REGION 1..7: note = epitope) [compound 1641]; Preferably
